src = patent US20060069132A1

- Tested on: barnyardgrass
- assay_procedure: Test B pre-/postemergence herbicide test
- Assay type: in vivo, Echinochloa crus-galli
- measurement_context: postemergence, 125 g ai/ha; visual rating, scale 0 (no effect) to 100 (complete control)
So I've got a bunch of compounds here, and I need their Barnyardgrass plant response rating values.
No unit in the answer, please; the number alone is enough.

Q: Determine from records and report Barnyardgrass plant response rating for CCOC(=O)c1cccc(NC(=O)c2cn(C(C)(C)C)nc2CC)c1 [Compound 186]
Result: 10

Q: Quote Barnyardgrass plant response rating reported for CCn1nc(C(C)(C)C)cc1C(=O)Nc1cc(C(=O)N2CC=CC2)ccn1 [Compound 142] please.
Result: 0

Q: Indicate its recorded Barnyardgrass plant response rating; the compound in question is C=Cn1nc(C(C)(C)C)cc1C(=O)Nc1cccc(C(C)=O)c1 [Compound 127]
Result: 10

Q: Identify measured Barnyardgrass plant response rating associated with CCOC(=O)c1ccc(F)c(NC(=O)c2cc(C(C)(C)C)nn2CC)c1 [Compound 70]
Result: 20

Q: Please indicate Barnyardgrass plant response rating recorded for CC(C)NS(=O)(=O)c1cccc(NC(=O)c2cc(C(C)(C)C)nn2C)c1 [Compound 124]
Result: 0

Q: Hello, please tell me recorded Barnyardgrass plant response rating for this one: C=CCN(C)C(=O)c1cccc(NC(=O)c2cc(C(C)(C)C)nn2CC)c1 [Compound 285]
Result: 0

Q: Provide measured Barnyardgrass plant response rating value, entry: CCN(CC)C(=O)c1cc(NC(=O)c2cc(C(C)(C)C)nn2CC)ccc1F [Compound 59]
Result: 0

Q: Could you please provide reported Barnyardgrass plant response rating for CCn1nc(C(C)(C)C)cc1C(=O)Nc1cccc(C(=O)OC(C)(C)C)c1 [Compound 98] ? Thanks!
Result: 10

Q: Provide measured Barnyardgrass plant response rating value, entry: CCn1nc(C(C)(C)C)cc1C(=O)Nc1cc(C(=O)N(C)C)c(F)cc1F [Compound 270]
Result: 0

Q: Identify the reported Barnyardgrass plant response rating for the following entry. CCOC(=O)c1cc(NC(=O)c2cc(C(C)(C)C)nn2CC)c(F)cc1F [Compound 250]
Result: 20

Q: In one line, give reported Barnyardgrass plant response rating of the entry CCOC(=O)c1cc(NC(=O)c2cc(C(C)(C)C)nn2CC)ccc1OC [Compound 96] .
Result: 0

Q: Give a short answer stating reported Barnyardgrass plant response rating for CCOC(=O)c1cc(NC(=O)c2cc(C(C)(C)C)nn2CC)ccc1C [Compound 99] .
Result: 0

Q: Name the recorded Barnyardgrass plant response rating of the item COC(=O)c1cccc(NC(=O)c2sc(C(C)(C)C)nc2C)c1 [Compound 197] in your answer.
Result: 0

Q: For the compound CCNC(=O)c1cccc(NC(=O)c2cn(C(C)(C)C)nc2C)c1 [Compound 183] , report Barnyardgrass plant response rating.
Result: 0

Q: Give recorded Barnyardgrass plant response rating. CCc1nc(C(C)(C)C)sc1C(=O)Nc1cccc(C(=O)N(C)C)c1 [Compound 228]
Result: 30

Q: Note Barnyardgrass plant response rating for the compound shown: CCn1nc(C(C)(C)C)cc1C(=O)Nc1cc(C(=O)NCCOC)ccn1 [Compound 161]
Result: 10

Q: Quote Barnyardgrass plant response rating reported for CCc1nn(C(C)(C)C)cc1C(=O)Nc1ccc(F)c(C(=O)N(CC)CC)c1 [Compound 240] please.
Result: 0

Q: Consider the compound CCCOC(=O)c1cccc(NC(=O)c2cc(C(C)(C)C)nn2CC)c1C [Compound 90] and give its recorded Barnyardgrass plant response rating.
Result: 0

Q: Give reported Barnyardgrass plant response rating value for C#CCn1nc(C(C)(C)C)cc1C(=O)Nc1cccc(C(=O)NCC)c1 [Compound 50]
Result: 50
